- measurement-target: ALG13 (UniProt Q9NP73)
- Sequence (Q9NP73 whole entry, the tested form may be a part): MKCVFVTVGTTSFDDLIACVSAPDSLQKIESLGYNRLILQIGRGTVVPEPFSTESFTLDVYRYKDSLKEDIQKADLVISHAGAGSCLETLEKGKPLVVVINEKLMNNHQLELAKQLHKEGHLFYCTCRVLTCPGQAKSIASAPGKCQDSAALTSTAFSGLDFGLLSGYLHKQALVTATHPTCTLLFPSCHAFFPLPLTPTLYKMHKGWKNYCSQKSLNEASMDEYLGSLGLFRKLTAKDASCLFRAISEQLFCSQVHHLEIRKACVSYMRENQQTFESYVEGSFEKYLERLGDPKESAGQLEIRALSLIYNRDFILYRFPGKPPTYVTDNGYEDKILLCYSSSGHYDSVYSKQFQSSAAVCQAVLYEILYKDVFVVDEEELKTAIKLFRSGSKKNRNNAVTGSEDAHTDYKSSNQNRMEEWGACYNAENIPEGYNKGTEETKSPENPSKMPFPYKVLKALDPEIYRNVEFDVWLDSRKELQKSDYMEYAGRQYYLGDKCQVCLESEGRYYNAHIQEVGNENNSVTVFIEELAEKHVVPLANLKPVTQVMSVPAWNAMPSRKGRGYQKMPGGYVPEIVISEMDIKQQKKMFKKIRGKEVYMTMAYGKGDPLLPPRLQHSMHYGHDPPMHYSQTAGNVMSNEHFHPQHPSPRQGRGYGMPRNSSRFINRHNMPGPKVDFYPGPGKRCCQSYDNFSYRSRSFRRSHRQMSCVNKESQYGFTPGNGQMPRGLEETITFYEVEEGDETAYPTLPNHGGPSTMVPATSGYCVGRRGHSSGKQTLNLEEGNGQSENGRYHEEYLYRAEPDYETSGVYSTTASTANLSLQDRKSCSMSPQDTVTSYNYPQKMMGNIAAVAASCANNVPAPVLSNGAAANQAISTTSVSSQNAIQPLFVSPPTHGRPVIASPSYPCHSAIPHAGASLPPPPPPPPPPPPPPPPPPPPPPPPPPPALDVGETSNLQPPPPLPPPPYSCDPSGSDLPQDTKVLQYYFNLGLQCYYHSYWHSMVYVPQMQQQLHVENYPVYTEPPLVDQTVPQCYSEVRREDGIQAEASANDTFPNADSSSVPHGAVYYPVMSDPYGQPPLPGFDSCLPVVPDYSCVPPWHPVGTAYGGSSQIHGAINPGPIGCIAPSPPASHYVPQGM
- experiment-summary: log2 ratio of Biotin-Ahx-Ub-VS probe labelling (fragment/DMSO); higher = less target engagement (more negative = stronger competition), active = hit call of the paper (q ≤ 0.05, log2 ratio ≤ -1)
- condition-info: compound concentration: 200 uM; treatment time: 3 h
Possible outcomes: active, inactive

molecule	assigned-class
CN(CCc1ncc(Br)cn1)C(=O)CCl.Cl	inactive
O=C(CCl)Nc1ccc2c(c1)OC(F)(F)O2	inactive
CS(=O)(=O)c1ccc(CNC(=O)CCl)cc1	inactive
CC(NC(=O)CCl)c1cnn(C2CC2)c1 (stereo unspecified)	inactive
Cc1cccn2cc(CCNC(=O)CCl)nc12.Cl	inactive
O=C(CCl)N1CCc2[nH]c3ccccc3c2C1	inactive
O=C(CCl)Nc1nnc(CC(F)(F)F)o1	inactive
O=C(CCl)N1CCCCC12CCOCC2	inactive
O=C(CCl)N1CCN(C(=O)Nc2ccccc2)CC1	inactive
Cl.Cn1c(CNC(=O)CCl)nc2cccnc21	inactive
Cc1nc(CC2CCN(C(=O)CCl)CC2)no1	inactive
Cc1noc(N2CCN(C(=O)CCl)CC2)n1.Cl	inactive
O=C(CCl)N1c2ccccc2NC(=O)C12CCCC2	inactive
CC(O)CC1CCN(C(=O)CCl)CC1 (stereo unspecified)	inactive
CC1Cc2ccccc2N1C(=O)CCl (stereo unspecified)	inactive
O=C(CCl)N1CCC(c2ccn[nH]2)C1 (stereo unspecified)	inactive
C[C@H]1CN(C(=O)CCl)CCN1C(=O)c1cnn(C)c1.Cl	inactive
O=C(CCl)NCc1ccc2c(c1)OCO2	inactive
O=C(CCl)Nc1cc(Cl)ccc1-n1cncn1	inactive
O=C(CCl)NCCC1=CCCCC1	inactive
Cc1ccc(C(=O)NCCNC(=O)CCl)cc1	inactive
CC(=O)Nc1ccc(NC(=O)CCl)cc1	inactive
O=C(CCl)N1CCC(C(=O)N2CCCC2)CC1	inactive
O=C(CCl)NC1CCN(C(=O)C2CCCCC2)CC1	inactive
Cl.O=C(CN1CCN(C(=O)CCl)CC1)Nc1ccc(F)cc1	inactive
CC(NC(=O)CCl)c1ccc2[nH]ncc2c1 (stereo unspecified)	inactive
Cc1ccccc1OCC(=O)N1CCN(C(=O)CCl)CC1	inactive
Cc1cccc(NC(=O)[C@@H]2CCCN2C(=O)CCl)n1	inactive
Cc1cccnc1NC(=O)C1CCN(C(=O)CCl)CC1.Cl	inactive
CN(C)C(=O)c1ccc(CNC(=O)CCl)cc1	inactive
O=C(CCl)NC1(c2ccc3c(c2)OCCO3)CCCC1	inactive
O=C(CCl)Nc1cc2c(cc1Cl)OCCO2	inactive
Cc1c(C#N)c(NC(=O)CCl)n(Cc2ccco2)c1C	inactive
O=C(CN1CCN(C(=O)CCl)CC1)Nc1cccc(F)c1	inactive
O=C(CCl)N1CCC[C@@H]1c1ccon1	inactive
C#Cc1cccc(NC(=O)CCl)c1	inactive
CC(NC(=O)CCl)c1cccc(Cl)c1 (stereo unspecified)	inactive
Cc1cc(CC(C)NC(=O)CCl)n[nH]1 (stereo unspecified)	inactive
Cc1nc(CNC(=O)CCl)c2ccccn12.Cl	inactive
O=C(CCl)N[C@H]1CCS(=O)(=O)c2ccccc21	inactive
O=C(CCl)N1CCN(C(=O)N2CCCCC2)CC1	active
O=C(CCl)N1CCOC(CCc2ccccc2)C1 (stereo unspecified)	inactive
O=C(CCl)N1CCCC1c1ccsc1 (stereo unspecified)	inactive
COc1ccc(Cl)cc1NC(=O)CCl	inactive
Cc1ccc(CNC(=O)CCl)nc1C.Cl	inactive
O=C(CCl)NC(Cn1ccccc1=O)c1ccccc1 (stereo unspecified)	inactive
Cc1ccc(CN(CCO)C(=O)CCl)cc1	inactive
Cc1cccc(C)c1NC(=O)CCl	inactive
Cc1ccc(C)c(NC(=O)CCl)c1	inactive
Cl.Cn1cnc2cc(CNC(=O)CCl)ccc21	inactive
C[C@@H](NC(=O)CCl)c1cccc(C#N)c1	inactive
CCN1C(=O)C2CN(C(=O)CCl)CCN2C1=O (stereo unspecified)	inactive
COc1ccccc1C(C)NC(=O)CCl (stereo unspecified)	inactive
O=C(CCl)NCC1(c2ccccc2)CC1	active
Cc1nnc(C(NC(=O)CCl)c2ccccc2)n1C (stereo unspecified)	inactive
Cc1ccc(N(C(=O)CCl)C2C=CS(=O)(=O)C2)cc1 (stereo unspecified)	inactive

----------
- measurement-target: USP34 (UniProt Q70CQ2)
- experiment-summary: log2 ratio of Biotin-Ahx-Ub-VS probe labelling (fragment/DMSO); higher = less target engagement (more negative = stronger competition), active = hit call of the paper (q ≤ 0.05, log2 ratio ≤ -1)
- condition-info: compound concentration: 200 uM; treatment time: 3 h
Classify as follows. Reported log2 ratio of Biotin-Ahx-Ub-VS probe labelling greater than or equal to -0.1: yes. Reported log2 ratio of Biotin-Ahx-Ub-VS probe labelling below: no.

molecule	assigned-class
O=C(CCl)N1CCN(C(=O)N2CCCCC2)CC1	no
CC(NC(=O)CCl)c1noc(Cc2ccccc2)n1 (centres undefined)	yes
O=C(CCl)N1CC2(CCOCC2)C1	yes
Cc1ccc(CN(C)C(=O)CCl)o1	yes
CNC(=O)C1CCN(C(=O)CCl)CC1	yes
O=C(CCl)NCc1ccc(Cl)cc1	no
Cc1ncc2c(n1)CCN(C(=O)CCl)C2	no
CN(Cc1nc2ccccc2[nH]1)C(=O)CCl.Cl	no
Cc1ccc(C)c(NC(=O)CCl)c1	no
Cl.O=C(CCl)N1CCCC(c2ncc[nH]2)C1 (centres undefined)	yes
Cc1ccc2nnc(CNC(=O)CCl)n2c1	yes
Cl.Cn1c(CNC(=O)CCl)nc2cccnc21	no
O=C(CCl)NCc1ccc2c(c1)OCO2	yes

----------
- measurement-target: USP16 (UniProt Q9Y5T5)
- Sequence (Q9Y5T5 whole entry, looked up, the tested form may be a part): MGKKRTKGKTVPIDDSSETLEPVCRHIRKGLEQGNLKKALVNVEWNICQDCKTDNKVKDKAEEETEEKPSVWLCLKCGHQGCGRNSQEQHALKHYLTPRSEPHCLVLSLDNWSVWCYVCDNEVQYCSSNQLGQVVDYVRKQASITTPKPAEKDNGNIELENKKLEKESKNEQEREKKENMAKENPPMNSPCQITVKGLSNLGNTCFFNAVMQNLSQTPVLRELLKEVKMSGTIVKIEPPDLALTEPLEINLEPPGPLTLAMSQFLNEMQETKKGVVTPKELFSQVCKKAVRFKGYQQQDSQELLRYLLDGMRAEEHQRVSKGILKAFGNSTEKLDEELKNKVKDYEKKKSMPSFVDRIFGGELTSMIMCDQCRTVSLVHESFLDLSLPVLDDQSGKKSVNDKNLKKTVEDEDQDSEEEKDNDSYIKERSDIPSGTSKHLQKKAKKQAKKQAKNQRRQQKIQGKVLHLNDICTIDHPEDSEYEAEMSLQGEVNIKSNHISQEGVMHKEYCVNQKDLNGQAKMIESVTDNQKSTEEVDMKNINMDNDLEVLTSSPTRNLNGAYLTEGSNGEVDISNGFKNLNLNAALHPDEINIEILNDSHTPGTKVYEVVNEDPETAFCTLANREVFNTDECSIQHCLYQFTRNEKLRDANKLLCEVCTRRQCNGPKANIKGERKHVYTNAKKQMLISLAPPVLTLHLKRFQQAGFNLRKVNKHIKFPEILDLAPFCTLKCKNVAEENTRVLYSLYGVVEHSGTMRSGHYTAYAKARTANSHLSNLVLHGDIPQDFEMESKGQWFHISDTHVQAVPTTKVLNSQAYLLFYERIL
- experiment-summary: log2 ratio of Biotin-Ahx-Ub-VS probe labelling (fragment/DMSO); higher = less target engagement (more negative = stronger competition), active = hit call of the paper (q ≤ 0.05, log2 ratio ≤ -1)
- condition-info: compound concentration: 200 uM; treatment time: 3 h
Here, each record is paired with measured log2 ratio of Biotin-Ahx-Ub-VS probe labelling data.
measurement-label: log2 ratio of Biotin-Ahx-Ub-VS probe labelling

compound	reported-measurement
O=C(CCl)N1CCc2[nH]c3ccccc3c2C1	0.191 (inactive)
O=C(CCl)N1CCCC2CCCCC21 (configuration not stated)	-0.257 (inactive)
CN1C(=O)c2ccc(NC(=O)CCl)cc2C1=O	-0.455 (inactive)
O=C(CCl)Nc1cc(Cl)ccc1-n1cncn1	0.0892 (inactive)
N#Cc1cnn(-c2ccccc2)c1NC(=O)CCl	-0.0136 (inactive)
O=C(CCl)N1CCCN(C(=O)c2ccc(Cl)cc2)CC1	-0.13 (inactive)
Cc1cc(C(=O)NC2CCN(C(=O)CCl)CC2)no1	0.021 (inactive)

----------
- measurement-target: PSMD7 (UniProt P51665)
- Sequence (P51665 whole entry, the tested form may be a part): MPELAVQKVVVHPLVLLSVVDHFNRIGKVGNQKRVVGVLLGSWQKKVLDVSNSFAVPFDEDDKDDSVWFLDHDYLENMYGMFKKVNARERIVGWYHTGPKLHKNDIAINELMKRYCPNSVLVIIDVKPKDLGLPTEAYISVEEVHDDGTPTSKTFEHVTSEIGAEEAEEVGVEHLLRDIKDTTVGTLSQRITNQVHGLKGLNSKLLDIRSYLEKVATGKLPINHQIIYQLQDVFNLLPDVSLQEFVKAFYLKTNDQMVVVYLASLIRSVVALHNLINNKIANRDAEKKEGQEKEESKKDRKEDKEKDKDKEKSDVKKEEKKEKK
- experiment-summary: log2 ratio of Biotin-Ahx-Ub-VS probe labelling (fragment/DMSO); higher = less target engagement (more negative = stronger competition), active = hit call of the paper (q ≤ 0.05, log2 ratio ≤ -1)
- condition-info: compound concentration: 200 uM; treatment time: 3 h
Here, each record is paired with measured log2 ratio of Biotin-Ahx-Ub-VS probe labelling data.
measurement-label: log2 ratio of Biotin-Ahx-Ub-VS probe labelling

molecule	measurement-target	reported-measurement
O=C(CCl)N1CC=C(c2c[nH]c3ccccc23)CC1	PSMD7 (UniProt P51665)	0.00731
CC(NC(=O)CCl)c1noc(Cc2ccccc2)n1 (centres undefined)	PSMD7 (UniProt P51665)	-0.49
Cc1cccc(N2CCC(NC(=O)CCl)C2=O)c1 (centres undefined)	PSMD7 (UniProt P51665)	-0.248
Cl.O=C(CCl)NC1(c2ncccn2)CCC1	PSMD7 (UniProt P51665)	-0.289

----------
- measurement-target: UCHL5 (UniProt Q9Y5K5)
- Sequence (Q9Y5K5 whole entry, the tested form may be a part): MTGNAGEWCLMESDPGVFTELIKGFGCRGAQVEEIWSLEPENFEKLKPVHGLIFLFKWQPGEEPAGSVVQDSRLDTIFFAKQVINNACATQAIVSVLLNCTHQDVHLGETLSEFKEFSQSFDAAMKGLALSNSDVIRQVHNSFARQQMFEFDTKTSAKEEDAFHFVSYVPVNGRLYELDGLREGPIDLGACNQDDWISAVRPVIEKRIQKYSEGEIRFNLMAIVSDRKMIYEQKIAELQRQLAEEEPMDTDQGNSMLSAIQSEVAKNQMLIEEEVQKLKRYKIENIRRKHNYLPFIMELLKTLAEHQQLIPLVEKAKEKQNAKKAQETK
- experiment-summary: log2 ratio of Biotin-Ahx-Ub-VS probe labelling (fragment/DMSO); higher = less target engagement (more negative = stronger competition), active = hit call of the paper (q ≤ 0.05, log2 ratio ≤ -1)
- condition-info: compound concentration: 200 uM; treatment time: 3 h
Here, each record is paired with measured log2 ratio of Biotin-Ahx-Ub-VS probe labelling data.
measurement-label: log2 ratio of Biotin-Ahx-Ub-VS probe labelling

molecule	reported-measurement
Cc1cc(NC(=O)CCl)n(-c2ccccc2)n1	-0.0207
O=C(CCl)NCc1cccc(F)c1	-0.0221
COc1cccc(CN(C)C(=O)CCl)c1	-0.0244
O=C(CCl)N1CCOCC1C1CC1 (configuration not stated)	-0.257
Cl.O=C(CCl)N1CCn2cncc2C1	0.0547
Cc1ccc(CN(CCO)C(=O)CCl)cc1	-0.52
Cl.Cn1ncc2c1CCCC2NC(=O)CCl (configuration not stated)	-0.145

----------
- measurement-target: USP4 (UniProt Q13107)
- Sequence (Q13107 whole entry, the tested form may be a part): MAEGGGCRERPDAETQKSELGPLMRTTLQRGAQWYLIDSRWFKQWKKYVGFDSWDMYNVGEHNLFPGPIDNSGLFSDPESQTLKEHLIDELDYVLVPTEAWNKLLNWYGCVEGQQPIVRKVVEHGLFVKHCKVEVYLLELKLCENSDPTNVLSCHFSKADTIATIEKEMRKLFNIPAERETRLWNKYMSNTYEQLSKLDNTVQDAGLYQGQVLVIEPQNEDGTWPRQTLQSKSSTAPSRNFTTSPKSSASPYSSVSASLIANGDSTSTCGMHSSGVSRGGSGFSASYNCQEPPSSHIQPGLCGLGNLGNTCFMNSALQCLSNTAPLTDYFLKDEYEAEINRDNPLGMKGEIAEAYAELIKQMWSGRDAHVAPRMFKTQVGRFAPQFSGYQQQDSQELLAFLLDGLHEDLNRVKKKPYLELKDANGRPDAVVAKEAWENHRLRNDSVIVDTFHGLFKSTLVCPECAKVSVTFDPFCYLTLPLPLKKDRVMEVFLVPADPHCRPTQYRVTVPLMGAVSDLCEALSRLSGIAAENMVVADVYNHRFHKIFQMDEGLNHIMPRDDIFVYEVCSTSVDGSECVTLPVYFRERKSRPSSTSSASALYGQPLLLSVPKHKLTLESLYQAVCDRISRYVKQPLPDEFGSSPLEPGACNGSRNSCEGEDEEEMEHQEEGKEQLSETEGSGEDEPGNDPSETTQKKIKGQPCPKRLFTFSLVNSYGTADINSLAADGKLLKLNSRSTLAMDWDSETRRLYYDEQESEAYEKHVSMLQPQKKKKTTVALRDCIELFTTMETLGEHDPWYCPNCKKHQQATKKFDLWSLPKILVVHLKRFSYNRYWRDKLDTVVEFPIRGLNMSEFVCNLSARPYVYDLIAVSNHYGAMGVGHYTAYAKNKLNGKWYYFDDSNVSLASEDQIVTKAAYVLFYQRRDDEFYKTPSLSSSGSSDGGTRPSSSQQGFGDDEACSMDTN
- experiment-summary: log2 ratio of Biotin-Ahx-Ub-VS probe labelling (fragment/DMSO); higher = less target engagement (more negative = stronger competition), active = hit call of the paper (q ≤ 0.05, log2 ratio ≤ -1)
- condition-info: compound concentration: 200 uM; treatment time: 3 h
Classify as follows. Reported log2 ratio of Biotin-Ahx-Ub-VS probe labelling greater than or equal to -0.07: class 1. Reported log2 ratio of Biotin-Ahx-Ub-VS probe labelling below: class 0.

compound	assigned-class
COc1ccccc1C(C)NC(=O)CCl (stereo not given)	class 0
Cc1cc(Cl)ccc1NC(=O)CCl	class 1
O=C(CCl)NCc1ccc(N2CCOCC2)nc1	class 1
CC(NC(=O)CCl)c1cnn(C2CC2)c1 (stereo not given)	class 0
COc1ccc(Cl)cc1NC(=O)CCl	class 0
O=C(CCl)N1c2ccccc2NC(=O)C12CCCC2	class 1
O=C(CCl)N1CCC2(CCC(O)CC2)CC1	class 1
Cc1ccc(CN(C)C(=O)CCl)o1	class 1
Cc1nc(CN2CCCN(C(=O)CCl)CC2)no1.Cl	class 1
Cl.O=C(CCl)N1CCC(Cc2nccs2)C1 (stereo not given)	class 0
Cc1nc(CN2CCN(C(=O)CCl)CC2)cs1	class 0
Cc1ccc(C)c(NC(=O)CCl)c1	class 0
O=C(CCl)N(Cc1ccsc1)C1CC1	class 0
Cc1cccc2nc(CCNC(=O)CCl)cn12.Cl	class 0
CN(C)C(=O)c1ccc(CNC(=O)CCl)cc1	class 1
O=C(CCl)NCC(=O)N1CCCC1	class 1
COCC[C@@H](NC(=O)CCl)c1ccccc1	class 1
COCC1C=CCCN1C(=O)CCl (stereo not given)	class 0
N#Cc1cnn(-c2ccccc2)c1NC(=O)CCl	class 0
O=C(O)C1Cc2ccccc2CN1C(=O)CCl (stereo not given)	class 0
Cl.Cn1nc2c(c1CNC(=O)CCl)CCCC2	class 1
O=C(CCl)NC1CCC(C(F)(F)F)CC1 (stereo not given)	class 0
CC(O)CC1CCN(C(=O)CCl)CC1 (stereo not given)	class 1
O=C(CCl)Nc1ccc(Cl)c(F)c1	class 0
COc1cccc(CN(C)C(=O)CCl)c1	class 0
Cn1cc(CN(Cc2ccc(Cl)cc2)C(=O)CCl)cn1	class 0
CC(c1ccccc1)N(C)C(=O)CCl (stereo not given)	class 0
O=C(CCl)NCCC1COCCO1 (stereo not given)	class 1
Cc1noc(C)c1CNC(=O)CCl	class 0
CCC1c2ccsc2CCN1C(=O)CCl (stereo not given)	class 0
Cc1nnc(C(NC(=O)CCl)c2ccccc2)n1C (stereo not given)	class 1
CN1C(=O)c2ccc(NC(=O)CCl)cc2C1=O	class 0
O=C(CCl)N1CCC(c2ccn[nH]2)C1 (stereo not given)	class 0
Cl.Cn1ncc2c1CCCC2NC(=O)CCl (stereo not given)	class 1
NC(=O)C(Cc1ccccc1)NC(=O)CCl (stereo not given)	class 1
O=C(CCl)N1CCOC2(CCC2)C1	class 0
O=C(CCl)Nc1cccc(C(=O)N2CCSCC2)c1	class 0
Cc1cccnc1NC(=O)C1CCN(C(=O)CCl)CC1.Cl	class 1
Cl.O=C(CCl)NCCN1CCc2ccccc21	class 0
O=C(CCl)Nc1ccc(F)cc1Cl	class 0

Where do the numbers come from? From the supplement of paper PMC11732987.
